Test system: PC-9 (KRAS wild type human lung adenocarcinoma cell line)
assay.comment: KRAS 3D-Cell Proliferation Assay, PC-9 (Example 503)
Type: cell-based
condition.info: 168 h, PC-9 3D culture, 7 days, CellTiter-Glo 3D, read-out: Prolif PC9 3D ATP IC50
Recorded IC50 values for a group of compounds are listed next.
endpoint.label: IC50

{"compound": "C#Cc1cccc2cncc(-c3nc4c5c(nc(OC[C@@]67CCCN6C[C@H](F)C7)nc5c3F)N3C[C@H]5CC[C@H](N5)[C@H]3[C@H](C)O4)c12", "observed.result": "≥ 20 µM"}
{"compound": "Cc1cc(N)nc(-c2nc3c4c(nc(OC[C@]56CCN5CC(F)(F)C6)nc4c2F)N2C[C@H]4CC[C@H](N4)[C@H]2[C@H](C)O3)c1C(F)(F)F (single isomer, unassigned)", "observed.result": "≥ 20 µM"}
{"compound": "C[C@@H]1Oc2nc(-c3cc(N)c(F)cc3C(F)(F)F)c(F)c3nc(OC[C@]45CCN4CC(F)(F)C5)nc(c23)N2C[C@H]3CC[C@H](N3)[C@@H]12", "observed.result": "≥ 20 µM"}
{"compound": "Cc1ccnc(-c2nc3c4c(nc(OC[C@]56CCN5CC(F)(F)C6)nc4c2F)N2C[C@H]4CC[C@H](N4)[C@H]2[C@H](C)O3)c1C(F)(F)F", "observed.result": "≥ 20 µM"}

###

Tested on: PC-9 (KRAS wild type human lung adenocarcinoma cell line)
assay.comment: KRAS 3D-Cell Proliferation Assay, PC-9 (Example 503)
Assay type: cell-based
condition.info: 168 h, PC-9 3D culture, 7 days, CellTiter-Glo 3D, read-out: Prolif PC9 3D ATP IC50
Description: Example 503: KRAS 3D-Cell Proliferation Assays. Cellular potencies of compounds are assessed by evaluating inhibition of proliferation in 3D cultures of homozygous mutant KRAS G12D human pancreatic cell lines (AsPC-1 and HPAC) as compared to a KRAS wild type human lung adenocarcinoma cell line (PC-9 and/or H1975). […] The normalized luminescence results are plotted against compound concentration, and the data are fit to a 4-parameter Hill equation to determine the IC50 values.
pIC50: −log10 of the molar value.

{"smiles.notation": "Cc1cc(N)nc(-c2nc3c4c(nc(OC[C@@]56CCCN5C[C@H](F)C6)nc4c2F)N2C[C@H]4CC[C@H](N4)[C@H]2[C@H](C)O3)c1C(F)(F)F", "pIC50": "≤ 4.70"}
{"smiles.notation": "C[C@@H]1Oc2nc(-c3nc(N)cc4ccccc34)c(F)c3nc(OC[C@@]45CCCN4C[C@H](F)C5)nc(c23)N2C[C@H]3CC[C@H](N3)[C@@H]12", "pIC50": "≤ 4.70"}
{"smiles.notation": "Cc1cc(N)cc(-c2nc3c4c(nc(OC[C@@]56CCCN5C[C@H](F)C6)nc4c2F)N2C[C@H]4CC[C@H](N4)[C@H]2[C@H](C)O3)c1C(F)(F)F", "pIC50": "≤ 4.70"}
